Tested on: MAPKAPK2
reported.conditions: concentration: 1 μM, replicates: in singlicate; n = 1;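 note: KINOMEscan kinase panel screen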
Recorded %Inh by entry
Report field: quantity (unit follows the number).

[
  {
    "compound": "CC(C)Oc1ccc2c(-c3ccnc(Nc4ccc(N5CCN(C)CC5)cc4)n3)cnn2n1 [GW696155]",
    "%Inh": "0%"
  },
  {
    "compound": "[2H]C([2H])(c1cccc(C(F)(F)F)c1C)n1ccn2c(=O)nc(N3CCOCC3)cc12 [GSK2336394]",
    "%Inh": "22%"
  }
]

Value lookup for %Inh; key = O=C1Cc2cc(Nc3nc(NCc4cccc(S(=O)(=O)C(F)(F)F)c4)ncc3C(F)(F)F)ccc2N1
4%

Data request, read-out %Inh, for Cc1c(Cn2c(C)nn3c(=O)cc(N4CCOC(C)C4)nc23)cccc1C(F)(F)F (stereo not drawn) [GSK2344444]
1%

Recorded %Inh of COc1ccc(Nc2nccc(N3CCC(NC(=O)Nc4cccc(C(C)=O)c4)C3)n2)cc1 (stereo not drawn) [GSK1379731] , please.
0%

Fill in: %Inh of Cn1cc(-c2ccc3c(c2)CCN3C(=O)Cc2ccccc2Cl)c2c(N)ncnc21 [GSK2608885] is ___
0%

Could you tell me which %Inh is on file for NCC(NC(=O)c1cc(-c2cn[nH]c2)c(-c2ccnc3[nH]ccc23)s1)c1ccccc1.O=C(O)C(F)(F)F.O=C(O)C(F)(F)F (stereo not drawn) [GSK1325775] ?
0%

For the compound NCCNS(=O)(=O)c1ccc(-c2ccnc3[nH]ccc23)cc1 [GSK977617] , what %Inh is on record?
0%

What value of %Inh has been recorded for this entry: CN(C(=O)c1ccc(-c2cc(-c3c[nH]nc3-c3ccccn3)ccn2)cc1)C1CCOCC1 [GW810083]
0%

Give the measured %Inh of O=C(NOCC1CC1)c1ccc(F)c(F)c1Nc1ccc(I)cc1Cl .
0%

Returns the measured %Inh for the input compound. Input: COc1ccc(CNC(=O)NC2CCN(c3ccnc(Nc4ccc(OC)cc4)n3)C2)cc1 (stereo not drawn) [GSK1379727]
20%

Which value of %Inh has been reported for O=c1cc(N2CCOCC2)nc2n(Cc3cccc(F)c3)ccn12 [GSK2297430] in the records?
12%

State the recorded %Inh for this entry: Cn1ccc2ncnc(Oc3ccc(NC(=O)Nc4ccncc4)c(Cl)c3)c21
0%

Form field: reported %Inh of Cl.Nc1ncnc2occ(-c3ccc(NC(=O)Nc4cc(C(F)(F)F)ccc4F)cc3)c12 [SB-707548]
15%

# input compound: Cc1nnc(-c2ccc3occ(-c4ccc(C(C)O)cc4)c3c2)o1 (stereo not drawn) ; wanted: its %Inh
21%

What %Inh value was documented for this compound, CC(C)(C)n1cnc2c(N)ncnc21 [SKF-97359] ?
0%

Quick check: %Inh of N#Cc1ccc(-c2cc(-c3c[nH]nc3-c3ccccn3)ccn2)cc1 [GW693028] ?
4%

Look at this compound and give its reported %Inh. O=C(NCCNc1ccnc(Nc2ccc(F)cc2)n1)c1cc2ccccc2s1 [GSK1379874]
0%

----------
System: PRKD3
reported.conditions: concentration: 1 μM, replicates: in singlicate; n = 1
reported.metric: %Inh (%)
The answer is to be given in %; state only the numeric part.

Consider the worked cases shown below.
[
  {
    "compound": "CN1c2ccc(NCc3ccc(F)cc3)cc2-c2c(cnn2C)S1(=O)=O",
    "reported.metric": "%Inh",
    "readout.units": "%",
    "numeric.value": 0
  },
  {
    "compound": "Cl.Nc1ncnc2occ(-c3ccc(NC(=O)Nc4cc(C(F)(F)F)ccc4F)cc3)c12 [SB-707548]",
    "reported.metric": "%Inh",
    "readout.units": "%",
    "numeric.value": 29
  },
  {
    "compound": "N#Cc1c(N2CCOCC2)sc(-c2ccn[nH]2)c1-c1ccc(Cl)cc1",
    "reported.metric": "%Inh",
    "readout.units": "%",
    "numeric.value": 16
  },
  {
    "compound": "CCc1nc(-c2cccc(C)c2)c(-c2ccnc(NCc3ccccc3)c2)s1",
    "reported.metric": "%Inh",
    "readout.units": "%",
    "numeric.value": 0
  },
  {
    "compound": "CSc1ccc(-c2cc3ncnc(SCC(=O)O)c3s2)cc1",
    "reported.metric": "%Inh",
    "readout.units": "%",
    "numeric.value": 9
  }
]

Entry O=C(NCCNc1ccnc(Nc2ccc(F)cc2)n1)c1cc2ccccc2s1 [GSK1379874] : reported %Inh = ?
0

So what's the measured %Inh for this one? Cc1cccc(-c2nc(Nc3ccc4ncsc4c3)c3ccccc3n2)n1 [GW867588]
66

Reported %Inh, compound Nc1nc(-c2ccc3c(N)n[nH]c3c2)cc(N2CCCC2)n1 [GSK2227430] : ____
13

# %Inh lookup, item CC(C)(C)n1cnc2c(N)ncnc21 [SKF-97359]
0

----------
Parameter: %Inh. Scope: all listed entries.
System: PIK3CG
reported.conditions: concentration: 1 μM, replicates: in singlicate; n = 1
Give your result in % as a bare value.

Answered cases to consult:
[
  {
    "molecule": "Cl.Oc1cccc(Nc2ccnc3cc(-c4ccncc4)ccc23)c1 [GW494601]",
    "readout.units": "%",
    "%Inh": 0
  },
  {
    "molecule": "C[C@@H](Oc1cc(-n2cnc3ccc(NC(=O)NC(C)(C)C)cc32)sc1C(N)=O)c1ccccc1Cl [GSK346294]",
    "readout.units": "%",
    "%Inh": 6
  },
  {
    "molecule": "COc1ccc(COc2cc(-n3cnc4ccccc43)sc2C(N)=O)cc1 [GSK1024304]",
    "readout.units": "%",
    "%Inh": 0
  },
  {
    "molecule": "N#Cc1c(N2CCOCC2)sc(-c2ccn[nH]2)c1-c1ccc(Cl)cc1",
    "readout.units": "%",
    "%Inh": 20
  },
  {
    "molecule": "NS(=O)(=O)c1cccc(-c2ccc3nccc(-c4cccc(S(N)(=O)=O)c4)c3c2)c1 [GW867253]",
    "readout.units": "%",
    "%Inh": 88
  }
]

Record lookup: for PIK3CG, what %Inh belongs to Cc1nnc(-c2ccc(C)c(-c3ccc(C(=O)Nc4ccc(NS(C)(=O)=O)cc4)cc3)c2)o1 [GW702865] ?
0

Observed %Inh on PIK3CG for COc1ccc(CNC(=O)NC2CCN(c3ccnc(Nc4ccc(OC)cc4)n3)C2)cc1 (stereo not drawn) [GSK1379727] , please.
0

Item O=C1NC(=O)C(N2CCc3ccccc32)=C1c1cccc(Cl)c1 [SB-408010] with PIK3CG - %Inh?
0

Lab note: need %Inh for Cc1ccc(NC(=O)c2ccnc(N3CCN(C)CC3)c2)cc1-c1ccc(C(=O)NCC2CC2)cc1 [GW775604] on PIK3CG, anyone have it?
0

----------
Tested on: PAK4
reported.conditions: concentration: 1 μM, replicates: in singlicate; n = 1
Reported values of %Inh for individual entries
State just the number; it will be interpreted in %.

Worked cases, answers included:
[
  {
    "compound": "CNc1ncnc2[nH]ncc12 [SKF-18355]",
    "%Inh / %": 0
  },
  {
    "compound": "[2H]C([2H])(c1cccc(C(F)(F)F)c1C)n1ccn2c(=O)nc(N3CCOCC3)cc12 [GSK2336394]",
    "%Inh / %": 0
  },
  {
    "compound": "N#Cc1c(N2CCOCC2)sc(-c2ccn[nH]2)c1-c1ccc(Cl)cc1",
    "%Inh / %": 15
  }
]

Fill in the recorded %Inh for this compound, with PAK4 as test system: COC(=O)Nc1nc2cc(Oc3ccc(NC(=O)Nc4cc(F)ccc4F)cc3)ccc2[nH]1.Cl [GW701424]
0

Request body: readout %Inh, system PAK4, query O=C(NCCNc1ccnc(Nc2ccc(F)cc2)n1)Nc1ccccc1F [GSK1379880] . Return the value.
0

Query for PAK4: what %Inh does the record show for c1ccc(-c2cc(-c3c[nH]nc3-c3ccccn3)ccn2)cc1 [GW576604] ?
0

Recall the recorded %Inh for CCCCCc1nc2c(N)ncnc2n1CCCCC [SKF-97255] with PAK4 and state it.
6

Look up %Inh with PAK4 for this compound: Fc1ccc(-c2ncn(CCCN3CCOCC3)c2-c2cccnc2)cc1 [SB-211743]
7

So what %Inh did Nc1nccc(-c2c(-c3ccc(F)cc3)ncn2C2CCN(CC(F)(F)F)CC2)n1 [SB-236560] get with PAK4?
16

PAK4 / %Inh / NS(=O)(=O)CCc1cccc(Nc2nccc(-c3c(-c4cccc(NC(=O)c5c(F)cccc5F)c4)nn4ccccc34)n2)c1 [GSK336735] : value?
0

Request body: readout %Inh, system PAK4, query O=c1cc(N2CCOCC2)nc2n(Cc3cccc(Cl)c3Cl)c(C3CC3)nn12 [GSK2358994] . Return the value.
0

// fetch PAK4 %Inh for Cc1ccc(NC(=O)c2ccnc(N3CCN(C)CC3)c2)cc1-c1ccc(C(=O)NCC2CC2)cc1 [GW775604]
0

What %Inh appears in the records for this compound with PAK4? CN(C1=C(c2ccccc2)C(=O)NC1=O)c1ccccc1 [SB-334860]
5
